Assay: Stability test in artificial gastric juice
Format: physicochemical
Conditions: artificial gastric juice with acetonitrile, pH 1.2, artificial gastric juice pH ca. 1.2 with acetonitrile, 37° C.; calculated assuming pseudo-first-order decomposition
Collected half-life values appear next to each entry.
Value kind: half-life

{"Compound": "Cc1c(OCC(F)(F)F)ccnc1C[S+]([O-])c1nc2ccccc2[nH]1 (stereo not drawn) [lansoprazole, reference compound]", "Obs value": "< 0.03 h"}
{"Compound": "Cc1c(OCC(F)(F)F)ccnc1C[S+]([O-])c1nc2ccccc2n1COC(=O)c1ccccc1 (stereo not drawn) [Example 1]", "Obs value": "≥ 4 h"}
{"Compound": "CCCOC(=O)OCn1c([S+]([O-])Cc2nccc(OCC(F)(F)F)c2C)nc2ccccc21 (stereo not drawn) [Example 18]", "Obs value": "≥ 4 h"}

FYI, the data here is from patent US20040039027A1.
